Data credit: patent US6689806B1

Consider the following molecules; for each one, report its pIC50.
EXPERIMENTAL SYSTEM: Her2 (Homo sapiens)
Construct: fused on or other part: P00533 (Epidermal growth factor receptor)
ASSAY PROTOCOL: HER-2 ELISA: EGF receptor-HER2 chimeric receptor assay in whole cells (HER2 kinase)
Type: cell-based
CONDITIONS: Table 5; NIH3T3 cells with EGFR/HER2 chimeric receptor, phosphotyrosine ELISA
pIC50: −log10 of the molar value.

Task item: Requested field: pIC50. Item: COc1ccc(CC2C(=O)Nc3ccc(F)cc32)cc1C1CCCC1 (centres unmarked)
Reply: 4.79

Task item: Requested field: pIC50. Item: O=C1Nc2cccc(CCO)c2C1Cc1ccc(Br)cc1 (centres unmarked)
Reply: < 4.00

Task item: Requested field: pIC50. Item: COc1ccc(CC2C(=O)Nc3cc(NC(C)=O)ccc32)cc1-c1cccs1 (centres unmarked)
Reply: < 4.00

Task item: Requested field: pIC50. Item: Cc1cccc2c1C(Cc1ccc3[nH]ccc3c1)C(=O)N2 (centres unmarked)
Reply: < 4.00

Task item: Requested field: pIC50. Item: O=C(Nc1ccc2c(c1)NC(=O)C2Cc1cc(Cl)ccc1O)C1CCCC1 (centres unmarked)
Reply: < 4.00

----------
Consider the following compounds; for each one, report its pIC50.
EXPERIMENTAL SYSTEM: Her2 (Homo sapiens, UniProt P04626)
Construct: fused on or other part: P00533 (Epidermal growth factor receptor)
Sequence (P04626 676-1255 limits assumed): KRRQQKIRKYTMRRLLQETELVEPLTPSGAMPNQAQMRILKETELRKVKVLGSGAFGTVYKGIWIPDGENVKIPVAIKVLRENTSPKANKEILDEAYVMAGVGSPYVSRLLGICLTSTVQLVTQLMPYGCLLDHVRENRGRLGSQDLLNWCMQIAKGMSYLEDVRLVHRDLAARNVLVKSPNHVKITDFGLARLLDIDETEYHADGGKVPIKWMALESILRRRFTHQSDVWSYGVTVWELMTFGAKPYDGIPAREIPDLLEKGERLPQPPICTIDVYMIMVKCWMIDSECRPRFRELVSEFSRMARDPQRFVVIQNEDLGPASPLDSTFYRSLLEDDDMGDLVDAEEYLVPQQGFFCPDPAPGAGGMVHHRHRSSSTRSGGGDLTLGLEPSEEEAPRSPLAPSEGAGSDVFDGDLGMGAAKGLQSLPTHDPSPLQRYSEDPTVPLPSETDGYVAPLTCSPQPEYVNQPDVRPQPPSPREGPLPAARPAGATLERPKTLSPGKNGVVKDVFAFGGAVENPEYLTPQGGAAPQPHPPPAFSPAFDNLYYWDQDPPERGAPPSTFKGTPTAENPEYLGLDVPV
ASSAY PROTOCOL: EGF-induced Her2-driven BrdU incorporation
Type: cell-based
CONDITIONS: Table 5; 3T3 cells with EGF-R/Her2 chimeric receptor, EGF 2 nM; read-out: BrdU DNA syn. HER2 IC50
pIC50: −log10 of the molar value.

Task item: Requested field: pIC50. Item: Cc1[nH]c(CC2C(=O)Nc3ccc(Cl)cc32)c(C)c1CCCN(C)C (centres unmarked) [AAI-23]
Reply: < 4.30

Task item: Requested field: pIC50. Item: COc1ccc(CC2C(=O)Nc3ccc(CCN4CCOCC4)cc32)cc1-c1ccsc1 (centres unmarked) [AAI-8]
Reply: 4.94

Task item: Requested field: pIC50. Item: COc1cccc(-c2ccc3c(c2)NC(=O)C3Cc2[nH]c(C)c(CCCN(C)C)c2C)c1 (centres unmarked) [AAI-21]
Reply: < 4.30

Task item: Requested field: pIC50. Item: COc1ccc(CC2C(=O)Nc3cc(-c4ccccc4)ccc32)c(O)c1 (centres unmarked) [AAI-25]
Reply: < 4.30

Task item: Requested field: pIC50. Item: COc1cccc(-c2ccc3c(c2)NC(=O)C3Cc2ccccc2O)c1 (centres unmarked) [AAI-13]
Reply: < 4.30

----------
EXPERIMENTAL SYSTEM: EGFR (Homo sapiens, UniProt P00533)
Sequence (P00533 25-1210): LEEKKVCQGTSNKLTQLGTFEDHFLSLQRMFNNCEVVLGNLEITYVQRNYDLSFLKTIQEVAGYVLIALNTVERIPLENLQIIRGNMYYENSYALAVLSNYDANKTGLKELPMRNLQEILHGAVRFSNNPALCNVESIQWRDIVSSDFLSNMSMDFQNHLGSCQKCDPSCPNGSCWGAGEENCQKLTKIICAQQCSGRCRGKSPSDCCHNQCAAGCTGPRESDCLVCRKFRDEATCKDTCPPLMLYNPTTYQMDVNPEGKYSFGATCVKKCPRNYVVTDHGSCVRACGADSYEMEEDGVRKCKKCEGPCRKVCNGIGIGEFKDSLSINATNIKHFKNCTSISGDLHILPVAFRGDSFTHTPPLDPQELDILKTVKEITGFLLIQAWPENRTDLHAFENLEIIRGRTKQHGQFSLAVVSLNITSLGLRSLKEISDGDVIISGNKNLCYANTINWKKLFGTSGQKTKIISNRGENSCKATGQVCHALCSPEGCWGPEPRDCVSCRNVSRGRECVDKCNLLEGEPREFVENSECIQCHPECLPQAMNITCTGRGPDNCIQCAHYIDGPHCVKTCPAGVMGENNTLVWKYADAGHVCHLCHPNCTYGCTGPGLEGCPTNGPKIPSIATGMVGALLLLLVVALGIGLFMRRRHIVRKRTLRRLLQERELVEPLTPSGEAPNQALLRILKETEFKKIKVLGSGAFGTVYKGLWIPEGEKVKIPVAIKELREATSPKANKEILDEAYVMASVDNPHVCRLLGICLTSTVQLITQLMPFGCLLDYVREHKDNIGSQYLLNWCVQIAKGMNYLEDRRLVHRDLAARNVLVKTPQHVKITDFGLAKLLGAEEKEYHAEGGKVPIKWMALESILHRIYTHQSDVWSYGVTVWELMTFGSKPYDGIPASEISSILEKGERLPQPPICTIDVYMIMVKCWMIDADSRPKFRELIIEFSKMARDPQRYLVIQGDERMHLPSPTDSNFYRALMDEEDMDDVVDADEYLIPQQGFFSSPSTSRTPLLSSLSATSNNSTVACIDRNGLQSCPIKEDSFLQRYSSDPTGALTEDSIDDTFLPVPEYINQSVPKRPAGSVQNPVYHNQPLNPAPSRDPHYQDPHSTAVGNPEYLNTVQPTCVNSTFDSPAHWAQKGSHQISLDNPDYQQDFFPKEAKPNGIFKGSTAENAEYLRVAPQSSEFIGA
ASSAY PROTOCOL: Biochemical EGFR assay (ELISA)
Set-up: A431 cell lysate; endogenous in cells; host or cells: A431
CONDITIONS: Table 7, in vitro kinase activity, read-out: EGFr biochem IC50
pIC50: −log10 of the molar value.
Consider the following compounds; for each one, report its pIC50.

Task item: Requested field: pIC50. Item: CC(C)c1ccccc1OCCc1cccc2c1CC(=O)N2 [IN-002]
Reply: < 4.00

Task item: Requested field: pIC50. Item: O=C1Nc2cccc(CCO)c2/C1=C/c1ccc2[nH]ccc2c1 [IN-007]
Reply: < 4.00

Task item: Requested field: pIC50. Item: CCOCCc1cccc2c1CC(=O)N2 [IN-019]
Reply: < 4.00

Task item: Requested field: pIC50. Item: Cc1ccc(O)c(C=C2C(=O)Nc3cccc(CCO)c32)n1 (racemic) [IN-022]
Reply: < 4.00

Task item: Requested field: pIC50. Item: CC(C)(C)NC(=O)OCCc1cccc2c1CC(=O)N2 [IN-012]
Reply: < 4.00

Task item: Requested field: pIC50. Item: O=C1Cc2c(CCOC(=O)Nc3ccccc3)cccc2N1 [IN-011]
Reply: < 4.00

Task item: Requested field: pIC50. Item: O=C1Cc2c(CCOC(=S)Nc3ccccc3)cccc2N1 [IN-010]
Reply: < 4.00

Task item: Requested field: pIC50. Item: O=C1Cc2c(CCOC(=O)NC3CCCCC3)cccc2N1 [IN-013]
Reply: < 4.00

Task item: Requested field: pIC50. Item: Cc1cccc(/C=C2\C(=O)Nc3cccc(CCO)c32)n1 [IN-006]
Reply: < 4.00

Task item: Requested field: pIC50. Item: O=C1Cc2c(CCOc3cccc(-c4ccccc4)c3)cccc2N1 [IN-003]
Reply: < 4.00

Task item: Requested field: pIC50. Item: Cc1[nH]c(/C=C2\C(=O)Nc3cccc(CCOc4cccc(C(C)C)c4)c32)c(C)c1CCCN(C)C [IN-023]
Reply: < 4.00

Task item: Requested field: pIC50. Item: COc1ccc(OCCc2cccc3c2CC(=O)N3)cc1 [IN-017]
Reply: < 4.00

Task item: Requested field: pIC50. Item: O=C1Cc2c(CCOC(=O)Nc3ccccc3-c3ccccc3)cccc2N1 [IN-015]
Reply: < 4.00

Task item: Requested field: pIC50. Item: CCNC(=O)OCCc1cccc2c1CC(=O)N2 [IN-016]
Reply: < 4.00

Task item: Requested field: pIC50. Item: O=C1Nc2cccc(CCO)c2/C1=C\c1ccc(Br)cc1 [IN-004]
Reply: < 4.00

Task item: Requested field: pIC50. Item: Cc1[nH]c(/C=C2\C(=O)Nc3cccc(CCOc4ccc(C(C)C)cc4)c32)c(C)c1CCC(=O)O [IN-024]
Reply: < 4.00

Task item: Requested field: pIC50. Item: O=C1Cc2c(CCOc3cncc(Cl)c3)cccc2N1 [IN-021]
Reply: < 4.00

Task item: Requested field: pIC50. Item: COc1ccc(/C=C2\C(=O)Nc3cccc(CCO)c32)cc1-c1cccs1 [IN-008]
Reply: < 4.00

Task item: Requested field: pIC50. Item: Cc1[nH]c(/C=C2\C(=O)Nc3cccc(CCO)c32)c(C)c1CCCN(C)C [IN-009]
Reply: < 4.00

Task item: Requested field: pIC50. Item: CC(C)NC(=O)OCCc1cccc2c1CC(=O)N2 [IN-025]
Reply: < 4.00

Task item: Requested field: pIC50. Item: CC(C)c1ccc(OCCc2cccc3c2CC(=O)N3)cc1 [IN-020]
Reply: < 4.00
